molecular target: the molecule itself; assay: two-hybrid; bacterial two hybrid system (BACTH) based on adenylate cyclase T18/T25 fusions in E. coli BTH101; X-gal/IPTG indicator plates at 30 °C for 48 h; beta-galactosidase activity with ONPG in Miller units (Mu)
measure-name: beta-galactosidase activity (Miller units) (Mu)

protein	unit-text	value-measured
YhaX, adenylate cyclase T18/T25 hybrid (natural protein, Bacillus subtilis, UniProt O07539 1-288, looked up, YhaX, spore coat protein of unknown function of Bacillus subtilis; gene amplified from genomic DNA; also called T25–YhaX; YhaX–T18; source: bacterial two-hybrid fusion, E. coli BTH101; not shown: T18 or T25 domain of adenylate cyclase, N-terminal or C-terminal (by the plasmid combination), kept) MSKQLLALNIDGALLRSNGKIHQATKDAIEYVKKKGIYVTLVTNRHFRSAQKIAKSLKLDAKLITHSGAYIAEKIDAPFFEKRISDDHTFNIVQVLESYQCNIRLLHEKYSIGNKKKVNSNLLGKALIHPSDPIFYPVQFVESLSDLLMDEPVSAPVIEVYTEHDIQHDITETITKAFPAVDVIRVNDEKLNIVPKGVSKEAGLALVASELGLSMDDVVAIGHQYDDLPMIELAGLGVAMGNAVPEIKRKADWVTRSNDEQGVAYMMKEYFRMQQRKGFLDKFHMKRV	Mu	704
